Target: Yap3 (UniProt P38749)
Sequence: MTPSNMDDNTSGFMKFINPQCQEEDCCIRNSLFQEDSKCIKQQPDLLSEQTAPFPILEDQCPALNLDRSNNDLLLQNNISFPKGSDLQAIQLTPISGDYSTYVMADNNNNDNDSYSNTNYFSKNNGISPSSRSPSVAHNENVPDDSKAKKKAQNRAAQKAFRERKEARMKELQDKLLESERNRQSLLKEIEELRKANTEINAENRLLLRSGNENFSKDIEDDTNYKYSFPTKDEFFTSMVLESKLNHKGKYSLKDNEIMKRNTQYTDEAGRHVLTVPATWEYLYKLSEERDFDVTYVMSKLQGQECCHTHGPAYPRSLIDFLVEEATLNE
Assay: PBM E-score (8-mer binding enrichment) (E-score (-0.5 to 0.5)); higher = stronger / more preferred TF binding
Conditions: protein concentration: 100 nM; construct: GST-full length
Over roughly 33,000 sequences, “E-score (-0.5 to 0.5)” has its median near -0.0034; the highest 2% begin near 0.25. This is one part of a sample in which the highest values are shown more often than they occur.
readout_kind: PBM E-score
Enter the number alone.

- ordered_residues: "GACTAAAA"
  system_tested: "Yap3 (UniProt P38749)"
  readout_kind: "PBM E-score"
  value_observed: 0.0994

Form field - read-out: PBM E-score; system: Yap3 (UniProt P38749); submitted item: ACGTAATG 0.354

Request: PBM E-score, test system Yap3 (UniProt P38749), entry TAAGACAA 0.187

Could you share what PBM E-score was measured for ACAGACAG , tested on Yap3 (UniProt P38749)? 0.0669

Request body: readout PBM E-score, system Yap3 (UniProt P38749), query CAAGACAA . Return the value. 0.0625

// fetch Yap3 (UniProt P38749) PBM E-score for ACGTAATA 0.44

Request - read-out PBM E-score | tested on Yap3 (UniProt P38749) | sequence AACTATAA 0.186

What value of PBM E-score on Yap3 (UniProt P38749) does CCAATTAG have? 0.177

Hi! What's the reported PBM E-score for TTCCCGAA on Yap3 (UniProt P38749)? 0.115

Any idea what PBM E-score came out for ACGCGGGG on Yap3 (UniProt P38749)? -0.0549

Request body: readout PBM E-score, system Yap3 (UniProt P38749), query AGAATTAT . Return the value. 0.197

Please provide the recorded PBM E-score for CTAATTAG , tested on Yap3 (UniProt P38749). 0.347

Give recorded PBM E-score with Yap3 (UniProt P38749) for the following sequence: GTAATTAA 0.259

For the record CAAATTAG , what value of PBM E-score is listed for Yap3 (UniProt P38749)? 0.122

Checklist item: PBM E-score tested on Yap3 (UniProt P38749), entry GCGTTGCA , value? -0.112
